Tested on: OVCAR-8 ovarian
Test: NCI tumour cell line growth inhibition, 48 h
Record form. Attribute: GI50. Fill in for each entry.

// GI50 lookup, molecule = Nc1ccccc1SC(CC(=O)c1ccccc1)c1ccc([N+](=O)[O-])cc1 (stereo unspecified) , result: 14.1 µM

// GI50 lookup, molecule = NCCCCCCCCn1c2c(c3ccccc3c1=O)C(=O)c1ccccc1-2 , result: 3.98 µM

// GI50 lookup, molecule = COC(=O)[C@@]1(Cc2ccccc2)[C@H]2c3cc(C(=O)N4CCCC4)n(Cc4ccc(OC)c(OC)c4)c3C[C@H]2CN1C(=O)c1ccccc1 , result: 11.8 µM

// GI50 lookup, molecule = NC(=O)C1c2ccccc2C=Cc2ccccc21 , result: > 100 µM

// GI50 lookup, molecule = Cc1nc2ccccn2c1NC(=O)NNC(=S)Nc1ccc(Br)cc1 , result: 63.8 µM

New cases:
// GI50 lookup, molecule = CNC(=O)c1c(NC(=O)c2ccc(C(F)(F)F)cc2)sc2c1CCC(=O)C2 , result: 0.466 µM
